// Activity lookup, one value per entry
- Tested on: Mus musculus
- MEASUREMENT_PROTOCOL: Toxicity in CD1 mouse assessed as decrease in weight respect to day zero at 450 mg/kg, po after 3 days
- Assay type: organism-based
- Design: dose 450 mg/kg, route oral; scale not given: the % may be the effect or the level left
- RECORDED_CONDITIONS: in vivo, 72 h
Value expressed in %; do not type the unit.

# MOLECULE, TESTED_ON, VALUE_TYPE, UNIT_OF_MEASURE, ASSAY_VALUE
data = [
    ("CCCCCCNC(=O)/C=C/c1ccc([N+](=O)[O-])o1", "Mus musculus", "Activity", "%", 0),
    ("COCCNC(=O)N/N=C/c1ccc([N+](=O)[O-])o1", "Mus musculus", "Activity", "%", 0),
    ("CCCCNC(=O)N/N=C/c1ccc([N+](=O)[O-])o1", "Mus musculus", "Activity", "%", 1),
    ("CC1CS(=O)(=O)CCN1/N=C/c1ccc([N+](=O)[O-])o1 (configuration not stated) [NIFURTIMOX]", "Mus musculus", "Activity", "%", 6),
    ("CCCCOC(=O)N/N=C/C=C/c1ccc([N+](=O)[O-])o1", "Mus musculus", "Activity", "%", 2),
    ("CCCCCCCCOC(=O)N/N=C/c1ccc([N+](=O)[O-])o1", "Mus musculus", "Activity", "%", 11),
]

Now consider a different molecule.
Reported Mus musculus Activity for item CCCCCCCOC(=O)N/N=C/C=C/c1ccc([N+](=O)[O-])o1 was 0

###

- Test system: Mus musculus
- MEASUREMENT_PROTOCOL: Toxicity in CD1 mouse assessed as glutamic-pyruvate transaminase level at 450 mg/kg, po after 3 days
- Assay type: organism-based
- Set-up: dose 450 mg/kg, route oral
- RECORDED_CONDITIONS: in vivo, 72 h
For each record, check the reported Activity: if it is below 30 IU/L write 1 (yes), else write 0 (no).

# MOLECULE, TESTED_ON, CAT
data = [
    ("CCCCOC(=O)N/N=C/C=C/c1ccc([N+](=O)[O-])o1", "Mus musculus", "1 (yes)"),
]

## Input Is it true that Activity reported for CCCCCCCCOC(=O)N/N=C/C=C/c1ccc([N+](=O)[O-])o1 is less than 30 IU/L?
## Output 0 (no)

## Input Is it true that Activity reported for CCCCCCOC(=O)N/N=C/C=C/c1ccc([N+](=O)[O-])o1 is less than 30 IU/L?
## Output 0 (no)

## Input Is it true that Activity reported for CCCCCCOC(=O)N/N=C/c1ccc([N+](=O)[O-])o1 is less than 30 IU/L?
## Output 0 (no)

## Input Is it true that Activity reported for CC1CS(=O)(=O)CCN1/N=C/c1ccc([N+](=O)[O-])o1 (centres undefined) [NIFURTIMOX] is less than 30 IU/L?
## Output 0 (no)

## Input Is it true that Activity reported for CCCCCCCOC(=O)N/N=C/C=C/c1ccc([N+](=O)[O-])o1 is less than 30 IU/L?
## Output 0 (no)

## Input Is it true that Activity reported for CCCCCCNC(=O)/C=C/c1ccc([N+](=O)[O-])o1 is less than 30 IU/L?
## Output 1 (yes)

###

- System: Mus musculus
- MEASUREMENT_PROTOCOL: Toxicity in CD1 mouse lung at 300 mg/kg, ip after 3 days by histological study
- Format: organism-based
- Parameters: dose 300 mg/kg, route intraperitoneal
- RECORDED_CONDITIONS: in vivo, 72 h
VALUE_TYPE: Activity

Some solved cases for reference:
# COMPOUND, Activity
measured = [
    ("CC1CS(=O)(=O)CCN1/N=C/c1ccc([N+](=O)[O-])o1 (stereo unspecified) [NIFURTIMOX]", "Non-toxic"),
    ("CCCCOC(=O)N/N=C/C=C/c1ccc([N+](=O)[O-])o1", "Non-toxic"),
    ("CCCCCCCCOC(=O)N/N=C/c1ccc([N+](=O)[O-])o1", "Non-toxic"),
    ("CCCCCCOC(=O)N/N=C/C=C/c1ccc([N+](=O)[O-])o1", "Non-toxic"),
    ("CCCCCCNC(=O)/C=C/c1ccc([N+](=O)[O-])o1", "Toxic"),
]

Now consider a different compound.
Activity for COCCNC(=O)N/N=C/c1ccc([N+](=O)[O-])o1 is Non-toxic

###

- System: Mus musculus
- MEASUREMENT_PROTOCOL: Toxicity in CD1 mouse assessed as glutamic-oxalacetate transaminase level at 450 mg/kg, po after 3 days
- Format: organism-based
- Design: dose 450 mg/kg, route oral
- RECORDED_CONDITIONS: in vivo, 72 h
// Activity lookup, one value per entry
Value expressed in IU/L; do not type the unit.

Some solved cases for reference:
# MOLECULE, ASSAY_VALUE
measured = [
    ("CCCCCCOC(=O)N/N=C/c1ccc([N+](=O)[O-])o1", 192),
    ("CC1CS(=O)(=O)CCN1/N=C/c1ccc([N+](=O)[O-])o1 (stereo not drawn)", 162),
]

Reported Mus musculus Activity for item CCCCOC(=O)N/N=C/C=C/c1ccc([N+](=O)[O-])o1 was 72

###

- Tested on: Mus musculus
- MEASUREMENT_PROTOCOL: Toxicity in CD1 mouse assessed as hematocrite level at 300 mg/kg, ip after 3 days
- Format: organism-based
- Parameters: dose 300 mg/kg, route intraperitoneal
- RECORDED_CONDITIONS: in vivo, 72 h
VALUE_TYPE: Activity (%)
Value expressed in %; do not type the unit.

Some solved cases for reference:
# MOLECULE, UNIT_OF_MEASURE, ASSAY_VALUE
rows = [
    ("CCCCCCOC(=O)N/N=C/C=C/c1ccc([N+](=O)[O-])o1", "%", 22.9),
    ("CC1CS(=O)(=O)CCN1/N=C/c1ccc([N+](=O)[O-])o1 (stereo not given)", "%", 39.3),
    ("CCCCCCOC(=O)N/N=C/c1ccc([N+](=O)[O-])o1", "%", 38.7),
]

Activity for CCCCOC(=O)N/N=C/C=C/c1ccc([N+](=O)[O-])o1 is 37.2

Activity for CCCCCCCCOC(=O)N/N=C/c1ccc([N+](=O)[O-])o1 is 43.6

###

// Activity lookup, one value per entry
- Test system: Mus musculus
- MEASUREMENT_PROTOCOL: Toxicity in CD1 mouse assessed as haemoglobin level at 450 mg/kg, po after 3 days
- Type: organism-based
- Parameters: dose 450 mg/kg, route oral
- RECORDED_CONDITIONS: in vivo, 72 h
Please state the number and follow it with the unit.

Some solved cases for reference:
# STRUCTURE, VALUE_TYPE, ASSAY_VALUE
data = [
    ("CCCCCCNC(=O)/C=C/c1ccc([N+](=O)[O-])o1", "Activity", "11.5 g/dL"),
    ("CCCCCCCCOC(=O)N/N=C/C=C/c1ccc([N+](=O)[O-])o1", "Activity", "13.9 g/dL"),
]

Now consider a different molecule.
Activity for CCCCCCCOC(=O)N/N=C/C=C/c1ccc([N+](=O)[O-])o1 is 13.4 g/dL

###

- Test system: Mus musculus
- MEASUREMENT_PROTOCOL: Toxicity in CD1 mouse lung at 450 mg/kg, po after 3 days by histological study
- Assay type: organism-based
- Parameters: dose 450 mg/kg, route oral
- RECORDED_CONDITIONS: in vivo, 72 h
VALUE_TYPE: Activity

Some solved cases for reference:
# COMPOUND, TESTED_ON, Activity
records = [
    ("CCCCOC(=O)N/N=C/C=C/c1ccc([N+](=O)[O-])o1", "Mus musculus", "Non-toxic"),
    ("CCCCCCCCOC(=O)N/N=C/c1ccc([N+](=O)[O-])o1", "Mus musculus", "Non-toxic"),
    ("CC1CS(=O)(=O)CCN1/N=C/c1ccc([N+](=O)[O-])o1 (stereo unspecified) [NIFURTIMOX]", "Mus musculus", "Non-toxic"),
    ("COCCNC(=O)N/N=C/c1ccc([N+](=O)[O-])o1", "Mus musculus", "Non-toxic"),
]

Now consider a different compound.
Reported Mus musculus Activity for item CCCCCCCOC(=O)N/N=C/C=C/c1ccc([N+](=O)[O-])o1 was Non-toxic

###

- Tested on: Mus musculus
- MEASUREMENT_PROTOCOL: Toxicity in CD1 mouse kidney at 450 mg/kg, po after 3 days by histological study
- Type: organism-based
- Set-up: dose 450 mg/kg, route oral
- RECORDED_CONDITIONS: in vivo, 72 h
VALUE_TYPE: Activity

Some solved cases for reference:
# MOLECULE, ASSAY_VALUE
rows = [
    ("COCCNC(=O)N/N=C/c1ccc([N+](=O)[O-])o1", "Toxic"),
    ("CCCCCCCOC(=O)N/N=C/C=C/c1ccc([N+](=O)[O-])o1", "Non-toxic"),
    ("CCCCCCOC(=O)N/N=C/C=C/c1ccc([N+](=O)[O-])o1", "Toxic"),
    ("CCCCOC(=O)N/N=C/C=C/c1ccc([N+](=O)[O-])o1", "Non-toxic"),
]

Activity for CCCCCCOC(=O)N/N=C/c1ccc([N+](=O)[O-])o1 is Non-toxic

Activity for CCCCCCCCOC(=O)N/N=C/c1ccc([N+](=O)[O-])o1 is Non-toxic

Activity for CCCCCCCCOC(=O)N/N=C/C=C/c1ccc([N+](=O)[O-])o1 is Toxic

Activity for CCCCCCNC(=O)N/N=C/C=C/c1ccc([N+](=O)[O-])o1 is Non-toxic

Activity for CCCCNC(=O)N/N=C/c1ccc([N+](=O)[O-])o1 is Toxic

Activity for CC1CS(=O)(=O)CCN1/N=C/c1ccc([N+](=O)[O-])o1 (stereo unspecified) is Toxic

Activity for CCCCCCNC(=O)/C=C/c1ccc([N+](=O)[O-])o1 is Non-toxic
